# ASSAY_REMARKS: Growth inhibition of human HCC2998 cells assessed as cell growth at 10^-6 M by sulforhodamine B assay
# Assay type: functional
# REPORTED_CONDITIONS: HCC 2998, read-out: Activity
The compounds listed here are annotated with their growth at 1 µM.

Recorded growth at 1 µM, per entry:
input_smiles=CC(C)=CC(=O)O[C@@H]1CC(C)(C)C[C@H]2C3=CC[C@@H]4[C@@]5(C)CC[C@H](O)C(C)(C)[C@@H]5CC[C@@]4(C)[C@]3(C)CC[C@@]12C(=O)O measurement_type="growth at 1 µM" obs_value=96%
input_smiles=C/C=C(/C)C(=O)O[C@@H]1CC(C)(C)C[C@H]2C3=CC[C@@H]4[C@@]5(C)CCC(=O)C(C)(C)[C@@H]5CC[C@@]4(C)[C@]3(C)CC[C@@]12C(=O)O measurement_type="growth at 1 µM" obs_value=98%
input_smiles=CC1(C)C[C@@H](O)[C@]2(C(=O)O)CC[C@]3(C)C(=CC[C@@H]4[C@@]5(C)C/C(=C\C=C\c6ccccc6)C(=O)C(C)(C)[C@@H]5CC[C@]43C)[C@@H]2C1 measurement_type="growth at 1 µM" obs_value=108%
input_smiles=CC(C)=CC(=O)O[C@@H]1CC(C)(C)C[C@H]2C3=CC[C@@H]4[C@@]5(C)CCC(=O)C(C)(C)[C@@H]5CC[C@@]4(C)[C@]3(C)CC[C@@]12C(=O)O measurement_type="growth at 1 µM" obs_value=88%

From here, focus on the item given below.
Exercise: Using the record for C/C=C(/C)C(=O)O[C@@H]1CC(C)(C)C[C@H]2C3=CC[C@@H]4[C@@]5(C)CC[C@H](O)C(C)(C)[C@@H]5CC[C@@]4(C)[C@]3(C)CC[C@@]12C(=O)O , report its growth at 1 µM.
Key: 101%

----------
# System: SR
# ASSAY_REMARKS: Growth inhibition of human SR cells by sulforhodamine B assay
# Format: functional
# REPORTED_CONDITIONS: read-out: pTGI (converted)
MEASUREMENT_TYPE: TGI

Recorded TGI, per entry:
molecule=CC1(C)C[C@@H](O)[C@]2(C(=O)O)CC[C@]3(C)C(=CC[C@@H]4[C@@]5(C)C/C(=C\C=C\c6ccccc6)C(=O)C(C)(C)[C@@H]5CC[C@]43C)[C@@H]2C1 obs_value="6.92 µM"
molecule="C/C=C(/C)C(=O)O[C@@H]1CC(C)(C)C[C@H]2C3=CC[C@@H]4[C@@]5(C)CCC(=O)C(C)(C)[C@@H]5CC[C@@]4(C)[C@]3(C)CC[C@@]12C(=O)O [LANTADENE A]" obs_value="> 100 µM"
molecule="CC(C)=CC(=O)O[C@@H]1CC(C)(C)C[C@H]2C3=CC[C@@H]4[C@@]5(C)CC[C@H](O)C(C)(C)[C@@H]5CC[C@@]4(C)[C@]3(C)CC[C@@]12C(=O)O [Reduced Lantadene B]" obs_value="35.5 µM"
molecule="C/C=C(/C)C(=O)O[C@@H]1CC(C)(C)C[C@H]2C3=CC[C@@H]4[C@@]5(C)CC[C@H](O)C(C)(C)[C@@H]5CC[C@@]4(C)[C@]3(C)CC[C@@]12C(=O)O [Reduced Lantadene A]" obs_value="5.62 µM"

From here, focus on the item given below.
Exercise: Using the record for CC(C)=CC(=O)O[C@@H]1CC(C)(C)C[C@H]2C3=CC[C@@H]4[C@@]5(C)CCC(=O)C(C)(C)[C@@H]5CC[C@@]4(C)[C@]3(C)CC[C@@]12C(=O)O , report its TGI.
Key: 33.9 µM

----------
# Tested on: UACC-62
# ASSAY_REMARKS: Growth inhibition of human UACC62 cells by sulforhodamine B assay
# Type: functional
# REPORTED_CONDITIONS: read-out: pTGI (converted)
MEASUREMENT_TYPE: TGI (µM)
Entry rule: numbers only, all in µM.

Recorded TGI, per entry:
input_smiles=C/C=C(/C)C(=O)O[C@@H]1CC(C)(C)C[C@H]2C3=CC[C@@H]4[C@@]5(C)CCC(=O)C(C)(C)[C@@H]5CC[C@@]4(C)[C@]3(C)CC[C@@]12C(=O)O obs_value=6.61
input_smiles=CC1(C)C[C@@H](O)[C@]2(C(=O)O)CC[C@]3(C)C(=CC[C@@H]4[C@@]5(C)C/C(=C\C=C\c6ccccc6)C(=O)C(C)(C)[C@@H]5CC[C@]43C)[C@@H]2C1 obs_value=3.72

Exercise: Using the record for C/C=C(/C)C(=O)O[C@@H]1CC(C)(C)C[C@H]2C3=CC[C@@H]4[C@@]5(C)CC[C@H](O)C(C)(C)[C@@H]5CC[C@@]4(C)[C@]3(C)CC[C@@]12C(=O)O , report its TGI.
Key: 3.47

Exercise: Using the record for CC(C)=CC(=O)O[C@@H]1CC(C)(C)C[C@H]2C3=CC[C@@H]4[C@@]5(C)CCC(=O)C(C)(C)[C@@H]5CC[C@@]4(C)[C@]3(C)CC[C@@]12C(=O)O , report its TGI.
Key: 14.1

Exercise: Using the record for CC(C)=CC(=O)O[C@@H]1CC(C)(C)C[C@H]2C3=CC[C@@H]4[C@@]5(C)CC[C@H](O)C(C)(C)[C@@H]5CC[C@@]4(C)[C@]3(C)CC[C@@]12C(=O)O , report its TGI.
Key: 5.5

----------
# System: SF-539
# ASSAY_REMARKS: Growth inhibition of human SF539 cells by sulforhodamine B assay
# Type: functional
# REPORTED_CONDITIONS: read-out: pGI50 (converted)
The compounds listed here are annotated with their GI50.
Entry rule: numbers only, all in µM.

Recorded GI50, per entry:
input_smiles=CC(C)=CC(=O)O[C@@H]1CC(C)(C)C[C@H]2C3=CC[C@@H]4[C@@]5(C)CCC(=O)C(C)(C)[C@@H]5CC[C@@]4(C)[C@]3(C)CC[C@@]12C(=O)O obs_value=4.79
input_smiles=CC1(C)C[C@@H](O)[C@]2(C(=O)O)CC[C@]3(C)C(=CC[C@@H]4[C@@]5(C)C/C(=C\C=C\c6ccccc6)C(=O)C(C)(C)[C@@H]5CC[C@]43C)[C@@H]2C1 obs_value=2.88
input_smiles=C/C=C(/C)C(=O)O[C@@H]1CC(C)(C)C[C@H]2C3=CC[C@@H]4[C@@]5(C)CCC(=O)C(C)(C)[C@@H]5CC[C@@]4(C)[C@]3(C)CC[C@@]12C(=O)O obs_value=6.46
input_smiles=C/C=C(/C)C(=O)O[C@@H]1CC(C)(C)C[C@H]2C3=CC[C@@H]4[C@@]5(C)CC[C@H](O)C(C)(C)[C@@H]5CC[C@@]4(C)[C@]3(C)CC[C@@]12C(=O)O obs_value=3.39

From here, focus on the item given below.
Exercise: Request: GI50, test system SF-539, entry CC(C)=CC(=O)O[C@@H]1CC(C)(C)C[C@H]2C3=CC[C@@H]4[C@@]5(C)CC[C@H](O)C(C)(C)[C@@H]5CC[C@@]4(C)[C@]3(C)CC[C@@]12C(=O)O
Key: 8.91

----------
The compounds listed here are annotated with their CC50.
# Tested on: SF-539
# ASSAY_REMARKS: Growth inhibition of human SF539 cells by sulforhodamine B assay
# Type: functional
# REPORTED_CONDITIONS: read-out: LC50 (the source's name)

Recorded CC50, per entry:
input_smiles=CC(C)=CC(=O)O[C@@H]1CC(C)(C)C[C@H]2C3=CC[C@@H]4[C@@]5(C)CCC(=O)C(C)(C)[C@@H]5CC[C@@]4(C)[C@]3(C)CC[C@@]12C(=O)O target_desc=SF-539 measurement_type=CC50 obs_value="> 100 µM"
input_smiles=CC1(C)C[C@@H](O)[C@]2(C(=O)O)CC[C@]3(C)C(=CC[C@@H]4[C@@]5(C)C/C(=C\C=C\c6ccccc6)C(=O)C(C)(C)[C@@H]5CC[C@]43C)[C@@H]2C1 target_desc=SF-539 measurement_type=CC50 obs_value="36.7 µM"
input_smiles=CC(C)=CC(=O)O[C@@H]1CC(C)(C)C[C@H]2C3=CC[C@@H]4[C@@]5(C)CC[C@H](O)C(C)(C)[C@@H]5CC[C@@]4(C)[C@]3(C)CC[C@@]12C(=O)O target_desc=SF-539 measurement_type=CC50 obs_value="> 100 µM"
input_smiles=C/C=C(/C)C(=O)O[C@@H]1CC(C)(C)C[C@H]2C3=CC[C@@H]4[C@@]5(C)CC[C@H](O)C(C)(C)[C@@H]5CC[C@@]4(C)[C@]3(C)CC[C@@]12C(=O)O target_desc=SF-539 measurement_type=CC50 obs_value="56.3 µM"

Exercise: Using the record for C/C=C(/C)C(=O)O[C@@H]1CC(C)(C)C[C@H]2C3=CC[C@@H]4[C@@]5(C)CCC(=O)C(C)(C)[C@@H]5CC[C@@]4(C)[C@]3(C)CC[C@@]12C(=O)O , report its CC50.
Key: > 100 µM
